experiment: Healthy Japanese subjects, Part 2 (100, 200, 300 mg BID up-titration): PK of TAK-935 and M-I; type: in vivo, human; settings: human, plasma, oral, 100 mg, Day 1 (100 mg BID), Part 2, Median; read-out: AUCtau
endpoint: AUC

Quick one: AUC of O=C(c1cccnc1-c1ccncc1)N1CCC(O)(Cc2ccccc2)CC1 [soticlestat] ?
160 ng·h/mL

---

Experiment: Healthy Japanese subjects, Part 1 (single dose 200, 600, 1200 mg tablets): PK of TAK-935 and M-I
Format: in vivo, human
Conditions: human, plasma, oral, 200 mg, TAK-935 200 mg single dose, median, read-out: tmax
Procedure: This study consisted of 2 parts, and was a randomized, double-blind, placebo-controlled study to assess safety, tolerability, and PK and PD of TAK-935 when administered orally in healthy Japanese subjects. On Day 1 of each dose level, a single dose of TAK-935 or placebo was administered, and safety, PK and PD were evaluated. […] The PK parameters of TAK-935 and its metabolites (M-I) were determined from the concentration-time profiles for all evaluable subjects. […]
endpoint: Tmax (min)
Dear colleague, please return just the value in min, with no unit written.

Quick one: Tmax of O=C(c1cccnc1-c1ccncc1)N1CCC(O)(Cc2ccccc2)CC1 ?
45

---

experiment: Healthy Japanese subjects, Part 1 (single dose 200, 600, 1200 mg tablets): PK of TAK-935 and M-I; type: in vivo, human; conditions: human, oral; TAK-935 600 mg single dose, plasma, mean; read-out: Vz/F
endpoint: Vd/F (L)
Dear colleague, please return just the value in L, with no unit written.

Quick one: Vd/F of O=C(c1cccnc1-c1ccncc1)N1CCC(O)(Cc2ccccc2)CC1 ?
2340

---

Assay: Healthy Japanese subjects, Part 2 (100, 200, 300 mg BID up-titration): PK of TAK-935 and M-I
Type: in vivo, human
Settings: human, plasma, oral, 200 mg, Day 14 (200 mg BID), Part 2, Geo Mean; read-out: Cmax
Procedure: This study consisted of 2 parts, and was a randomized, double-blind, placebo-controlled study to assess safety, tolerability, and PK and PD of TAK-935 when administered orally in healthy Japanese subjects. […] The PK parameters of TAK-935 and its metabolites (M-I) were determined from the concentration-time profiles for all evaluable subjects. […] The following PK parameters were calculated from plasma concentrations of TAK-935 and its metabolites (M-I), unless otherwise specified: […]
endpoint: Cmax (ng/mL)
Dear colleague, please return just the value in ng/mL, with no unit written.

Quick one: Cmax of O=C(c1cccnc1-c1ccncc1)N1CCC(O)(Cc2ccccc2)CC1 [soticlestat] ?
836

---

assay: Healthy Japanese subjects, Part 2 (100, 200, 300 mg BID up-titration): PK of TAK-935 and M-I; assay type: in vivo, human; settings: human, plasma, oral, 300 mg, TAK-935; Day 21, 300 mg BID; read-out: Mean AUCτ
endpoint: AUC (ng·h/mL)
Dear colleague, please return just the value in ng·h/mL, with no unit written.

Quick one: AUC of O=C(c1cccnc1-c1ccncc1)N1CCC(O)(Cc2ccccc2)CC1 [soticlestat] ?
2020

---

experiment: clinical; conditions: human, in vivo, 200 mg
endpoint: clearance (mL/min)
Dear colleague, please return just the value in mL/min, with no unit written.

Quick one: clearance of O=C(c1cccnc1-c1ccncc1)N1CCC(O)(Cc2ccccc2)CC1 ?
3260
